FYI, the data here is from ChEMBL document CHEMBL5360612.

assay: Intrinsic clearance in mouse liver microsomes; format: ADME, Microsome; conditions: read-out: CLH
measurement-kind: microsomal CLint (µL/min/mg)

[P] Cn1nc2cc1CCc1cc(c3ccc(F)cc3c1)OCCCc1c(C(=O)O)n(CCN3CCOCC3)c3c(c(Cl)ccc13)-c1c(cnn1C)CSC2
[Q] COCCOCc1nn(C)c2c1CSCc1cc(n(C)n1)CCc1cc(c3ccc(F)cc3c1)OCCCc1c(C(=O)O)n(C)c3c-2c(Cl)ccc13
Task item: Look at P and Q . Which one has the lower recorded microsomal CLint number? // caller expects the label of the chosen entry
Reply: P

----------
target: Cytochrome P450 2C9 (Homo sapiens, UniProt P11712); experiment: Inhibition of recombinant human CYP2C9 by fluorescence microplate reader assay
Sequence (P11712 whole entry): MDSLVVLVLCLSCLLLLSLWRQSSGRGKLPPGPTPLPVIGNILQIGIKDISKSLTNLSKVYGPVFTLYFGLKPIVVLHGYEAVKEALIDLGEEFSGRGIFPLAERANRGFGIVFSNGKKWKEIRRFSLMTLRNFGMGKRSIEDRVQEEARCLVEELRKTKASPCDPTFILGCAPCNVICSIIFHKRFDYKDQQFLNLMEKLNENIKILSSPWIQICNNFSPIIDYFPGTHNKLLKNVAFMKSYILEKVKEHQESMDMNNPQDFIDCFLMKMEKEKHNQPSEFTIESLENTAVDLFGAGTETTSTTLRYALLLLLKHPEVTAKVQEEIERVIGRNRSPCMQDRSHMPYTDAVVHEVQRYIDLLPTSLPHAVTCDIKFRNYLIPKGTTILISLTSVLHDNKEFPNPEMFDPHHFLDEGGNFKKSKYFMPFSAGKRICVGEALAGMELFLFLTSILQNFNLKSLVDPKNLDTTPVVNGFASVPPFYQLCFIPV
measurement-kind: pIC50
Scale explanation: pIC50 corresponds to minus log10 of a concentration expressed in moles per litre.

Task item: Reported pIC50 for `COCCOCc1nn(C)c2c1CSCc1cc(n(C)n1)CCc1cc(c3ccc(F)cc3c1)OCCCc1c(C(=O)O)n(C)c3c-2c(Cl)ccc13` : what is it?
Reply: 4.72
